assay: Restrictive medium S. cerevisiae growth inhibition, OD615, pilot screen of yeast lifespan reduction project, restrictive growth control (AID 706); conditions: OD615, 48 h, at 10 µM, hits give high values;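 note: modified DeaD lifespan yeast strain shifted to restrictive glucose medium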

compound: O=C(NC1CCCCCCC1)C1CCC(CNc2c(N3CCCC3)c(=O)c2=O)CC1 (stereo unspecified)
growth inhibition / %: 0.64
//
compound: CN(C)c1ccc(C2C3C(=O)NC(=O)C3ON2c2ccc(Cl)cc2)cc1 (stereo unspecified)
growth inhibition / %: 2.37
//
compound: CCOc1ccc(C(=O)Nc2c3c(nn2-c2cccc(C)c2C)CS(=O)C3)cc1 (stereo unspecified)
growth inhibition / %: 3.53
//
compound: O=C1C2C(c3ccccc3)C=CC(c3ccccc3)C2C(=O)N1CCO (stereo unspecified)
growth inhibition / %: -8.43
//
compound: COCCn1c(SCC(=O)Nc2ccccc2)nc2c1c(=O)[nH]c(=O)n2C
growth inhibition / %: -4.34
//
compound: O=C(C(Cc1ccccc1)n1cccc1)N1CCc2ccccc21 (stereo unspecified)
growth inhibition / %: -9.65
//
compound: CCCC(=O)c1c(NC)cc(C)oc1=O
growth inhibition / %: 4.71
//
compound: COc1cc(C2C(C(=O)Nc3ccccc3OC)=C(C)Nc3ncnn32)ccc1O (stereo unspecified)
growth inhibition / %: 14.1
//
compound: CC1CN(c2nc3c(c(=O)[nH]c(=O)n3C)n2Cc2ccccc2F)CC(C)O1 (stereo unspecified)
growth inhibition / %: 2.61
//
compound: COC(=O)CCc1n[nH]c(=O)[nH]c1=O
growth inhibition / %: 9.25
//
compound: O=C(NCc1ccncc1)C(F)(F)C(F)(F)C(=O)NCc1ccncc1
growth inhibition / %: -3.65

---

Below, each entry is listed alongside its reported RAM network inhibition.
assay: RAM signaling pathway blockade in yeast – S. cerevisiae, Pdr1DBD-CYC8 efflux-inhibited sensitized strain, primary screen (AID 1298);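 note: 0% = DMSO untreated cells without growth and 100% = 10 µM 1-NA-PP1 full growth; higher means more yeast growth rescued from 5-FOA killing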; settings: S. cerevisiae cbk1-as DSE1-URA3 strain, 5-FOA growth OD615, 2 d; at 50 µM; hits give high values

molecule: CC1(C)Cc2c(C#N)c(NC3CCCCC3)nc(-c3ccco3)c2CO1
RAM network inhibition (%): 0.53
//
molecule: O=S(=O)(NCCCN1CCN(c2ccccc2F)CC1)c1cccc2cccnc12
RAM network inhibition (%): 5.43
//
molecule: CCNCCNC(=O)c1c(O)c2cccc3c2n(c1=O)CCC3
RAM network inhibition (%): 0.57
//
molecule: COc1cccc(C2CC(c3ccc(C(C)C)cc3)n3nc(N)nc3N2)c1 (centres undefined)
RAM network inhibition (%): 3.94
//
molecule: c1ccc2[nH]c(-c3ccnc4ccccc34)nc2c1
RAM network inhibition (%): 2.99
//
molecule: CCC/C(O)=C1\C(=O)CC(C)(C)CC1=NCCO
RAM network inhibition (%): 3.31
//
molecule: O=C(CC1Oc2ccccc2NC1=O)NCc1ccccc1 (centres undefined)
RAM network inhibition (%): 4.73
//
molecule: C=C(C)CSc1nnc(-c2cccc(Cl)c2)n1N
RAM network inhibition (%): -0.48
//
molecule: O=C(C(Cc1ccccc1)n1cccc1)N1CCN(C2CCCCC2)CC1 (centres undefined)
RAM network inhibition (%): 8.24
//
molecule: CCOC(=O)C(C)c1nn(C)c(=O)c2ccccc12 (centres undefined)
RAM network inhibition (%): 1.72
//
molecule: Cc1cccc(CCNC(=O)CN(C)S(=O)(=O)c2ccc3c(c2)c(=O)n(C)c(=O)n3C)c1
RAM network inhibition (%): 2.91
//
molecule: COc1ccc(N2CCN(Cc3nc4c(c(=O)n(C)c(=O)n4C)n3Cc3cccc(C)c3)CC2)cc1
RAM network inhibition (%): 8.85
//
molecule: CCN1C(=O)c2ccccc2S(=O)c2ccc(C(=O)N3CCN(C(=O)c4ccco4)CC3)cc21 (centres undefined)
RAM network inhibition (%): 7.96
//
molecule: COc1ccc(OC)c(C2CC(=O)N3CN(c4ccccc4)CSC3=C2C#N)c1 (centres undefined)
RAM network inhibition (%): 0.06
//
molecule: O=C(NCC1CCCO1)c1ccc2c(c1)OCO2 (centres undefined)
RAM network inhibition (%): 3.13
//
molecule: CC1Cc2nc(SCC(=O)NCCc3ccccc3)n(C)c(=O)c2S1 (centres undefined)
RAM network inhibition (%): 2.27
//
molecule: O=C(Cn1ncc2c1-c1ccccc1OC2)Nc1nc2ccccc2s1
RAM network inhibition (%): -2.15
//
molecule: COc1ccc(-c2cc(C(F)(F)F)nc(N3CCN(C)CC3)n2)cc1
RAM network inhibition (%): 4.04
//
molecule: CCOc1ccc(NC(=O)N(CCN(C)C)C(C)c2ccncc2)cc1 (centres undefined)
RAM network inhibition (%): 1.38
//
molecule: Cc1cc(C)c(S(=O)(=O)Nc2ccc(O)cc2)c(C)c1
RAM network inhibition (%): 2.25
//
molecule: O=C1CCCC/C1=C\Nc1ccc(Cl)cn1
RAM network inhibition (%): -1.13
//
molecule: COc1ccccc1-c1nnc(NC(=O)C(C)SC2=NCCS2)s1 (centres undefined)
RAM network inhibition (%): 6.22
//
molecule: c1nc2nc3c(c(N4CCOCC4)n2n1)CCCC3
RAM network inhibition (%): 0.44
//
molecule: COc1ccc(Cl)cc1S(=O)(=O)N1CCN(C)CC1
RAM network inhibition (%): 5.97

---

Below, each entry is listed alongside its reported viability.
assay: growth suppression of PTEN-deleted HCT116, pilot screen, cell-based, HCT116 clonal line, CellTiter-Glo (AID 824); conditions: 60 h, at 10 µM, hits give low values;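 note: 0% = 20 µM Hyamine control and 100% = vehicle cell control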
Inconclusive results are not listed.
quantity: viability (%)

molecule: Cc1csc2ncc(C(=O)Nc3ccc(C(F)(F)F)cc3)c(=O)n12
measured.number: 85.8
//
molecule: CCOC(=O)c1sc(NC(=O)c2ccc(Cl)s2)cc1C
measured.number: 94.9
//
molecule: COc1ccc(N(C)S(=O)(=O)c2cccc(C(=O)NC3=NCCS3)c2)cc1
measured.number: 89.8
//
molecule: Nc1[nH]nc2nc(N3CCOCC3)nc(-c3ccccc3)c12
measured.number: 88.3
//
molecule: COc1cc(C)c(S(=O)(=O)NCc2ccc3c(c2)OCO3)cc1C
measured.number: 102
//
molecule: N#Cc1nc(COc2ccc(Br)cc2)oc1N1CCCCCC1
measured.number: 67.5
//
molecule: Cn1nnnc1SCc1ccc(F)cc1
measured.number: 108
//
molecule: Cc1cc(Nc2cccc(C)c2C)n2ncnc2n1
measured.number: 94.3
//
molecule: COc1ccc(NC(=O)CN(c2cc(C)cc(C)c2)S(=O)(=O)c2c(C)n[nH]c2C)cc1
measured.number: 94.6
//
molecule: Oc1c(C(c2ccccc2)N2CCN(Cc3ccccc3)CC2)sc2ncnn12 (stereo unspecified)
measured.number: 84.7
//
molecule: C=C(C)Cn1c(SCC(=O)O)nc2c1c(=O)[nH]c(=O)n2C
measured.number: 98.8
//
molecule: CCCCS(=O)CC(COCc1ccccc1)OC(=O)CSc1nc(C)cc(C)n1 (stereo unspecified)
measured.number: 94.7
//
molecule: CCOc1ccc(N(CC(=O)Nc2cccc(F)c2)S(=O)(=O)c2c(C)noc2C)cc1
measured.number: 56.2
//
molecule: COc1ccc(C(=O)c2cn[nH]c2-c2cc(Cl)ccc2O)cc1
measured.number: 78.7
//
molecule: O=C(NCCn1ccc2ccccc21)C1CCCCC1
measured.number: 87.2
//
molecule: CCCCn1c(=O)[nH]c2ccccc21
measured.number: 104
//
molecule: COC(=O)c1cc(OC)c(OC)cc1NC(=O)C1CCCO1 (stereo unspecified)
measured.number: 99.8
//
molecule: COc1ccc(C)cc1NC(=O)c1cnc2scc(C)n2c1=O
measured.number: 84.8
//
molecule: Cn1c(C(=O)N2CCC(C(=O)N3CCOCC3)CC2)cc2sccc21
measured.number: 98.8
//
molecule: CCn1c(SCC(=O)N2CCN(c3ccccc3)CC2)nc2c(c1=O)SC(C)C2 (stereo unspecified)
measured.number: 78.4
//
molecule: CCc1ccccc1NC(=O)c1onc(C)c1Cl
measured.number: 97.7
//
molecule: Cc1cc(NC(=O)Nc2cccc3ccccc23)no1
measured.number: 89.1
//
molecule: Cc1c(C(=O)NCCCN2CCOCC2)sc2nc(-c3ccccc3)cn12
measured.number: 96
//
molecule: C=C(C)CSc1nc2c(c(=O)[nH]c(=O)n2C)n1Cc1ccccc1
measured.number: 78.3
//
molecule: Cc1cccc(N2C(=O)SC(N(CC(=O)O)c3cccc(C)c3)C2=O)c1 (stereo unspecified)
measured.number: 99.1
//
molecule: CC1(C)CC(=O)C2=C(C1)Nc1ccccc1NC2c1cccnc1 (stereo unspecified)
measured.number: 93.6
//
molecule: CN1CCN(C(=O)c2cc3c(s2)-c2ccccc2S(=O)(=O)C3)CC1
measured.number: 98.5
//
molecule: COc1ccc(CNC(=O)c2cnn3c(C(F)F)cc(C)nc23)cc1OC
measured.number: 86.2
//
molecule: CC(C)(C)NC(=O)CSc1nccn1Cc1ccccc1
measured.number: 93
//
molecule: CCOc1ccc(-c2nnc3ccc(SCC(=O)N4CCCCC4)nn23)cc1
measured.number: 101
//
molecule: COCCOC(=O)C1=C(C)NC(=O)NC1c1ccc(OC(=O)c2ccco2)c(OC)c1 (stereo unspecified)
measured.number: 92.7
//
molecule: O=C(CSc1nnc(-c2ccccc2Cl)o1)N1CCCCC1
measured.number: 97.6
//
molecule: CC(=O)Oc1cccc(N2C(=O)C3CC=C(Cl)CC3C2=O)c1 (stereo unspecified)
measured.number: 87.9
//
molecule: COc1ccc(-n2nc(C(=O)N3CCC(C#N)CC3)c3c4ccccc4n(C)c3c2=O)cc1
measured.number: 88.9
//
molecule: CCCc1cc(C(=O)Nc2sc3c(c2C(=O)OCC)CCCC3)no1
measured.number: 99.5
//
molecule: CC(C)NC(=O)c1ccc(CS(=O)(=O)c2ccc(Br)cc2)o1
measured.number: 95.1
//
molecule: Cc1oc2c(c1C(=O)NC(Cc1c[nH]c3ccccc13)C(=O)O)CCCC2 (stereo unspecified)
measured.number: 97.6
//
molecule: COC(=O)c1ccc(CSc2ncn[nH]2)o1
measured.number: 97.5
//
molecule: COc1ccc(OC)c(C2CC(=O)N3CN(c4ccccc4F)CSC3=C2C#N)c1 (stereo unspecified)
measured.number: 101
//
molecule: Cn1c2ccc(CC(=O)O)cc2c2cc(CC(=O)O)ccc21
measured.number: 89.7
//
molecule: O=C(Cn1cnc2c(nnn2-c2ccccc2)c1=O)NCC1CCCO1 (stereo unspecified)
measured.number: 94.3
//
molecule: CC(=O)Oc1cc2c(C(=O)NCc3ccncc3)c(C)oc2c2ccccc12
measured.number: 95.8
//
molecule: OC(CN1c2ccccc2Sc2ccccc21)Cn1nnc2ccccc21 (stereo unspecified)
measured.number: 66.2
//
molecule: Cn1nc(-c2ccc(Cl)cc2)c2cc(C(=O)NCC3CCCO3)sc21 (stereo unspecified)
measured.number: 60.2
//
molecule: COc1ccc(OCC(=O)Nc2cccc(C(C)=O)c2)cc1
measured.number: 94.6
//
molecule: CC1CCc2nn(CC(=O)N3CCCCCC3)cc2C1 (stereo unspecified)
measured.number: 91.4

The values you see were collected from PubChem BioAssay.
